Biological target: bradykinin 1 receptor (B1R) of the rat (Rattus norvegicus)
Construct: expressed in transfected cells; host or cells: CHO K1 cells
Sequence (P97583 1-337): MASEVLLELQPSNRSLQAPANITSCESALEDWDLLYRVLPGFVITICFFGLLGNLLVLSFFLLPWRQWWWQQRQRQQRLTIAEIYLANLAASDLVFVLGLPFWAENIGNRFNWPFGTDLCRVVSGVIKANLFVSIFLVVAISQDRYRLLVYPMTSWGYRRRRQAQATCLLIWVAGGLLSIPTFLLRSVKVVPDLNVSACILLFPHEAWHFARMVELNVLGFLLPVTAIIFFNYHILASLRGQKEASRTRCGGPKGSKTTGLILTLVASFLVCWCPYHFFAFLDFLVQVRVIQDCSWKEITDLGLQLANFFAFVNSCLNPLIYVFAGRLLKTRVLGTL
Test: Functional investigation on the rat bradykinin 1 receptor (B1R), Ca2+ FLIPR assay in CHO K1 rB1R cells
Format: cell-based
Conditions: B1R antagonism rat; test substance 10 μM; Ca2+ FLIPR, CHO K1 rB1R cells
From the text: Functional Investigation on the Human Bradykinin 1 Receptor (B1R) The agonistic or antagonistic action of substances can be determined on the bradykinin 1 receptor (B1R) of the human species and rats with the following assay. In accordance with this assay, the Ca^2+ inflow through the channel is quantified with the aid of a Ca^2=-sensitive dyestuff (type Fluo-4, Molecular Probes Europe BV, Leiden, Holland) in a fluorescent imaging plate reader (FLIPR, Molecular Devices, Sunnyvale, USA). […]
# B1R Ant. r [10 μM] % Inhibition values compiled below
The figure you give is taken to be in %; do not add the unit.

Worked cases, answers included:
CN(C)C(c1ccc(F)cc1)C1CCC(CNC(=O)COC2CCN(S(=O)(=O)c3ccccc3)CC2)CC1 (stereo not drawn); 12
COc1ccc(S(=O)(=O)N2CCCCC2COCC(=O)NCC2CCC(C(c3ccc(Cl)cc3)N(C)C)CC2)cc1OC (stereo not drawn); 2
CN(C)C(c1ccc(F)cc1)C1CCC(CCNC(=O)COCCN2CCN(S(=O)(=O)c3ccccc3)CC2)CC1 (stereo not drawn); 4
COc1ccc(S(=O)(=O)N2CCCCC2CCOCC(=O)NCC2CCC(C(CCc3ccccc3)N(C)C)CC2)cc1 (stereo not drawn); 72
COc1ccc(S(=O)(=O)N(C)CCOCC(=O)NCCC2CCC(C(c3cccc(F)c3)N(C)C)CC2)cc1OC (stereo not drawn); 2
COc1ccc(S(=O)(=O)N2CCC(OCC(=O)NCC3CCC(C(c4ccc(F)cc4)N(C)C)CC3)C2)cc1OC (stereo not drawn); 17
COc1ccc(S(=O)(=O)N2CCCCC2CCOCC(=O)NCC2CCC(C(c3ccc(Cl)cc3)N(C)C)CC2)cc1 (stereo not drawn); 31
CN(C)C(c1ccc(Cl)cc1)C1CCC(CCNC(=O)COC2CCCCC2N(C)S(=O)(=O)c2ccc(Cl)c(Cl)c2)CC1 (stereo not drawn); 6
COc1cc(C)c(S(=O)(=O)N(CCOCC(=O)NCC2CCC(C(c3ccc(F)cc3)N(C)C)CC2)Cc2ccccc2)c(C)c1 (stereo not drawn); 36
COc1cc(C)c(S(=O)(=O)N(CCOCC(=O)NC2CCC(C(c3ccc(F)cc3)N(C)C)CC2)Cc2ccccc2)c(C)c1 (stereo not drawn); 48

# input Give the observed B1R Ant. r [10 μM] % Inhibition of CN(C)C(c1ccc(F)cc1)C1CCC(NC(=O)COCCN(C)S(=O)(=O)c2ccc(Cl)cc2)CC1 (stereo not drawn) for bradykinin 1 receptor (B1R) of the rat (Rattus norvegicus).
# output 12

# input Give the observed B1R Ant. r [10 μM] % Inhibition of CN(C)C(c1ccc(Cl)cc1)C1CCC(CNC(=O)COCCN(C)S(=O)(=O)c2ccc(Cl)cc2Cl)CC1 (stereo not drawn) for bradykinin 1 receptor (B1R) of the rat (Rattus norvegicus).
# output 26
